- System: NEO-101 antibody
- experiment summary: Immunofluorescence of 293T cells transfected with MUC5AC truncation constructs
- Type: cell-based
- condition parameters: 2 μg/ml NEO-101 antibody

molecule	Binds NPC-1?
1-151 (protein, MUC5AC truncation construct (151)) ATMSVGRRKLALLWALALALACTTTHSQPVTRDCHLRCTWTKWFDVDFPSPGPHGGDKETYNNIIRSGEKICRRPEEITRLQCRAESHPEVSIEHLGQVVQCSREEGLVCRNQDQQGPFKMCLNYEVRVLCCETPKGCPVTSTPVTAPSTP	Yes
1-338 (protein, MUC5AC truncation construct (338)) ATMSVGRRKLALLWALALALACTTTHSQPVTRDCHLRCTWTKWFDVDFPSPGPHGGDKETYNNIIRSGEKICRRPEEITRLQCRAESHPEVSIEHLGQVVQCSREEGLVCRNQDQQGPFKMCLNYEVRVLCCETPKGCPVTSTPVTAPSTPSGRATSPTQSTSSWQKSRTTTLVTTSTTSTPQTSTTSAPTTSTTSAPTTSTTSAPTTSTTSTPQTSISSAPTSSTTSAPTSSTISARTTSIISAPTTSTTSSPTTSTTSATTTSTTSAPTSSTTSTPQTSKTSAATSSTTSSSGTTPSPVTTTSTASVSKTSTSHVSVSKTTHSQPVTRCTHHHHHH	Yes
